Reported values of GI50 for individual entries
Test system: OVCAR-8
Test: NCI tumour cell line growth inhibition, 48 h
The source made the active and inactive calls. Rule as the data show it: active = GI50 up to about 1.1 µM and inactive = higher.

> print(dat)
                                   molecule  study.system  reported.measurement
1                      NN=C(S)Nc1cccc(Cl)c1       OVCAR-8    81.5 µM (inactive)
2  c1ccc(C2N3CCCCC3[C@@H]3c4[nH]c5ccccc5c4CCN23)cc1 (some centres undefined)       OVCAR-8   > 100 µM (inactive)
3     Clc1ccc(/N=C/c2cc3cc(Br)ccc3nc2Cl)cc1       OVCAR-8    28.1 µM (inactive)

--- query ---
Data request: Record request: GI50 value, item CC(=O)c1ccc2c(c1)CC1(C2)Cc2cc3c(cc2C1=O)CCC3 (centres undefined)
Data returned: 16.1 µM (inactive)

----------
Tested on: A498
Test: NCI tumour cell line growth inhibition, 48 h
Activity calls are given as the source filed them. Cut-off read from the data, not from the text of the source: active = GI50 up to about 1.1 µM and inactive = higher.
Measured Metric: GI50

> print(dat)
                                   compound  reported.measurement
1  Cc1cccc(-c2nc3ccc([N+](=O)[O-])cc3c(=O)o2)c1    28.6 µM (inactive)
2  N#Cc1c(-c2ccc(Cl)cc2)c(C#N)c(=O)n(NS(=O)(=O)c2ccccc2)c1O    24.9 µM (inactive)
3  CN(C)CC1CCC/C(=C\c2ccc(OC(=O)c3ccc(Cl)cc3)cc2)C1=O (stereo not given)    7.26 µM (inactive)
4  O=C(O)C(=C\c1ccc2c(c1)OCO2)/C(=C/c1ccc2c(c1)OCO2)C(=O)O   > 100 µM (inactive)

Data request: Record request: GI50 value, item c1ccc2c(c1)OC(N1CCCC1)c1cnc(N3CCOCC3)nc1-2 (stereo not given)
Data returned: 18.7 µM (inactive)

Data request: Record request: GI50 value, item "O=C1/C(=C/c2ccc([N+](=O)[O-])cc2)Sc2scc(-c3cccc([N+](=O)[O-])c3)[n+]21"
Data returned: 3.13 µM (inactive)

Data request: Record request: GI50 value, item CC(=O)OCC1OC(n2c(=O)[nH]c(=O)c3nn[nH]c32)C(OC(C)=O)C(OC(C)=O)C1OC(C)=O (stereo not given)
Data returned: > 100 µM (inactive)

Data request: Record request: GI50 value, item CCOC(=O)CCC(NC(=O)Cc1ccc(Nc2nc3cc(F)c(F)cc3nc2C(=O)OCC)cc1)C(=O)OCC (stereo not given)
Data returned: > 100 µM (inactive)

Data request: Record request: GI50 value, item COC(=O)C1=CO[C@@H](OC2OC(CO)C(O)C(O)C2O)[C@@H]2[C@H](C)[C@@H](O)[C@@H](O)[C@]12O (stereo not given in full)
Data returned: > 100 µM (inactive)

Data request: Record request: GI50 value, item "CCOC(=O)c1cn2c(n1)sc1cc(Cl)cc(Cl)c12"
Data returned: > 100 µM (inactive)

Data request: Record request: GI50 value, item "O=c1oc(-c2ccc(O)c(O)c2)cc2cccc(O)c12"
Data returned: 19.9 µM (inactive)

Data request: Record request: GI50 value, item "CCN(CC)CCn1c2ccccc2c(=O)c2c(OC)ccc(OC)c21"
Data returned: 97.5 µM (inactive)

Data request: Record request: GI50 value, item Oc1cc(O)c2c(c1)O[C@H](c1cc(O)c(O)c(O)c1)[C@H](O)C2 [EPIGALLOCATECHIN]
Data returned: > 100 µM (inactive)
